Biological target: lysozyme fibrils (Gallus gallus, UniProt P00698)
Sequence (P00698 19-147): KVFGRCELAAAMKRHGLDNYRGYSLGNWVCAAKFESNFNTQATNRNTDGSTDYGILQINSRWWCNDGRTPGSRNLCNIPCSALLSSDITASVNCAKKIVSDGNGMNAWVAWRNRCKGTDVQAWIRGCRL
Experiment: Titration of lysozyme fibrils on a fixed probe concentration
Assay type: binding, chicken
outcome_measure: Kd (nM)
Give just the number in nM; leave the unit off.

Use these answered entries as a reference point.
>>> reading("Oc1ccc(/C=C/c2ccc3ccccc3c2)cc1O")
2900
>>> reading("Oc1ccc(/C=C/c2cc3ccc4cccc5ccc(c2)c3c45)cc1O")
1600
>>> reading("Oc1ccc(/C=C/c2ccc3cc4ccccc4cc3c2)cc1O")
2800

Read the next record carefully.
Query: Tell me reported Kd for Oc1ccc(/C=C/c2ccccc2)cc1O [Compound 2, (E)-4-Styrylbenzene-1,2-diol] , tested with lysozyme fibrils (Gallus gallus, UniProt P00698).
Reply: 7000

* * *

# τ1 per record follows
Biological target: Aβ1-42 fibrils (Homo sapiens, UniProt P05067)
Sequence (P05067 672-713): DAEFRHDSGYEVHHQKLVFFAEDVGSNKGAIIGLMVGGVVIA
Experiment: Fluorescence lifetime
Conditions: B: bound to Aβ1-42 fibrils in PBS buffer, [probe] = 5 μM, [fibrils] = 20 μM
Report only the number, with the unit ns understood.

Answered cases to consult:
>>> reading("Oc1ccc(/C=C/c2cc3ccc4cccc5ccc(c2)c3c45)cc1O [Compound 5]")
0.83
>>> reading("Oc1ccc(/C=C/c2ccccc2)cc1O [Compound 2, (E)-4-Styrylbenzene-1,2-diol]")
0.28

Query: Provide value of τ1 for this record tested with Aβ1-42 fibrils (Homo sapiens, UniProt P05067): Oc1ccc(/C=C/c2ccc3cc4ccccc4cc3c2)cc1O [Compound 4]
Reply: 0.64

Query: API: value(readout= τ1, system= Aβ1-42 fibrils (Homo sapiens, UniProt P05067), query= Oc1ccc(/C=C/c2ccc3ccccc3c2)cc1O [Compound 3] )
Reply: 0.23

* * *

Test: Fluorescence lifetime
Type: physicochemical
Conditions: A: degassed methanol, [probe] = 5 μM
outcome_measure: α1 (normalized pre-exponential factor)
Lab note: jot down the number only; don't add units.

>>> reading("Oc1ccc(/C=C/c2ccc3ccccc3c2)cc1O [Compound 3]")
1
>>> reading("Oc1ccc(/C=C/c2ccc3cc4ccccc4cc3c2)cc1O [Compound 4]")
1
>>> reading("Oc1ccc(/C=C/c2cc3ccc4cccc5ccc(c2)c3c45)cc1O [Compound 5]")
0.77

Next compound, please.
Query: Value lookup for α1 (normalized pre-exponential factor); key = Oc1ccc(/C=C/c2ccccc2)cc1O [Compound 2, (E)-4-Styrylbenzene-1,2-diol]
Reply: 1

* * *

Assay: UV-vis absorption and fluorescence spectra in methanol
Format: physicochemical
Conditions: four concentrations
Property: ε; scope: individual compounds

>>> reading("Oc1ccc(/C=C/c2ccc3cc4ccccc4cc3c2)cc1O [Compound 4]")
"27 070 L·M^–1 cm^–1"

Query: Fill blank: measured ε of the compound Oc1ccc(/C=C/c2cc3ccc4cccc5ccc(c2)c3c45)cc1O [Compound 5] is ____.
Reply: 47 668 L·M^–1 cm^–1

Query: Item under review: Oc1ccc(/C=C/c2ccc3ccccc3c2)cc1O [Compound 3] . Reported ε?
Reply: 30 170 L·M^–1 cm^–1

Query: Look up ε: Oc1ccc(/C=C/c2ccccc2)cc1O [Compound 2, (E)-4-Styrylbenzene-1,2-diol]
Reply: 25 038 L·M^–1 cm^–1

* * *

Experiment: UV-vis absorption and fluorescence spectra in methanol
Assay type: physicochemical
outcome_measure: λmax (abs)
For clarity, give the value followed by its unit.

Sample records with λmax (abs):
>>> reading("Oc1ccc(/C=C/c2ccc3ccccc3c2)cc1O [Compound 3]")
"334 nm"
>>> reading("Oc1ccc(/C=C/c2ccc3cc4ccccc4cc3c2)cc1O [Compound 4]")
"335 nm"
>>> reading("Oc1ccc(/C=C/c2cc3ccc4cccc5ccc(c2)c3c45)cc1O [Compound 5]")
"337 nm"

Let us move to another entry and its λmax (abs).
Query: Entry under review: Oc1ccc(/C=C/c2ccccc2)cc1O [Compound 2, (E)-4-Styrylbenzene-1,2-diol] . Reported λmax (abs)?
Reply: 325 nm

* * *

Biological target: Aβ1-42 fibrils (Homo sapiens, UniProt P05067)
Assay: Fluorescence lifetime
Settings: B: bound to Aβ1-42 fibrils in PBS buffer
outcome_measure: α2 (normalized pre-exponential factor)
Output spec: single numeric token, no unit.

Solved cases below.
>>> reading("Oc1ccc(/C=C/c2cc3ccc4cccc5ccc(c2)c3c45)cc1O")
0.42
>>> reading("Oc1ccc(/C=C/c2ccc3ccccc3c2)cc1O")
0.46
>>> reading("Oc1ccc(/C=C/c2ccc3cc4ccccc4cc3c2)cc1O")
0.62

Turning to the following compound.
Query: What value of measured α2 (normalized pre-exponential factor) is listed for Oc1ccc(/C=C/c2ccccc2)cc1O [Compound 2, (E)-4-Styrylbenzene-1,2-diol] ?
Reply: 0.14

* * *

Assay: UV-vis absorption and fluorescence spectra in methanol
Assay type: physicochemical
Measured Stokes shift, listed per entry.
Quick note: give the figure in nm, leave out the unit.

Answered cases to consult:
>>> reading("Oc1ccc(/C=C/c2ccccc2)cc1O [Compound 2, (E)-4-Styrylbenzene-1,2-diol]")
61
>>> reading("Oc1ccc(/C=C/c2ccc3cc4ccccc4cc3c2)cc1O")
148

Query: Returns the measured Stokes shift for the input molecule. Input: Oc1ccc(/C=C/c2ccc3ccccc3c2)cc1O
Reply: 86

Query: Consider the molecule shown here: Oc1ccc(/C=C/c2cc3ccc4cccc5ccc(c2)c3c45)cc1O What is its recorded Stokes shift?
Reply: 78

* * *

Target: lysozyme fibrils (Gallus gallus, UniProt P00698)
Assay: Fluorescence emission of probe bound to lysozyme fibrils
Format: binding, chicken
Settings: 5 μM fibrils (monomer basis) + 1 μM probe; pH 3.0; versus free probe
Reported Int: fold increase in fluorescence intensity upon binding to lysozyme fibrils values for the following compounds.
Number in fold, nothing else.

>>> reading("Oc1ccc(/C=C/c2ccc3ccccc3c2)cc1O")
13.1
>>> reading("Oc1ccc(/C=C/c2cc3ccc4cccc5ccc(c2)c3c45)cc1O")
8.9
>>> reading("Oc1ccc(/C=C/c2ccc3cc4ccccc4cc3c2)cc1O")
37.5

Query: Which Int: fold increase in fluorescence intensity upon binding to lysozyme fibrils reading was recorded for the compound Oc1ccc(/C=C/c2ccccc2)cc1O [Compound 2, (E)-4-Styrylbenzene-1,2-diol] ?
Reply: 3.8

* * *

Assay: UV-vis absorption and fluorescence spectra in methanol
Format: physicochemical
Conditions: excitation 330 nm, [probe] = 20 μM
The following molecules are shown together with reported λmax (em) values.
Write the answer as a number in nm, unit excluded.

Solved entries:
>>> reading("Oc1ccc(/C=C/c2ccccc2)cc1O [Compound 2, (E)-4-Styrylbenzene-1,2-diol]")
386
>>> reading("Oc1ccc(/C=C/c2ccc3cc4ccccc4cc3c2)cc1O [Compound 4]")
483
>>> reading("Oc1ccc(/C=C/c2cc3ccc4cccc5ccc(c2)c3c45)cc1O [Compound 5]")
415

Below: the item to evaluate.
Query: Fill in: λmax (em) of Oc1ccc(/C=C/c2ccc3ccccc3c2)cc1O [Compound 3] is ___
Reply: 420

* * *

Biological target: native TTR (Homo sapiens)
Assay: Saturation binding of native TTR to probe
outcome_measure: Kd (µM)
Give the value in µM but do not write µM after it.

Query: Name the reported Kd value associated with the compound Oc1ccc(/C=C/c2cc3ccc4cccc5ccc(c2)c3c45)cc1O
Reply: 0.2

* * *

Biological target: insulin fibrils (Bos taurus)
Sequence (P01317 25-54 limits assumed): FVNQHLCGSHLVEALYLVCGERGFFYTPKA
Sequence (P01317 85-105 limits assumed): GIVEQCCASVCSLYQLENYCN
Test: Titration of insulin fibrils on a fixed probe concentration
Format: binding, Bovine
outcome_measure: Kd (µM)
Field format: number, assumed µM, no unit text.

These recorded examples may help you get a feel for the data.
>>> reading("Oc1ccc(/C=C/c2ccc3ccccc3c2)cc1O [Compound 3]")
4.5
>>> reading("Oc1ccc(/C=C/c2ccc3cc4ccccc4cc3c2)cc1O [Compound 4]")
3.7
>>> reading("Oc1ccc(/C=C/c2cc3ccc4cccc5ccc(c2)c3c45)cc1O [Compound 5]")
2.3

Field: next molecule
Query: Which Kd is reported for this molecule? Oc1ccc(/C=C/c2ccccc2)cc1O [Compound 2, (E)-4-Styrylbenzene-1,2-diol]
Reply: 8

* * *

Biological target: Aβ1-42 fibrils (Homo sapiens, UniProt P05067)
Experiment: Fluorescence lifetime
Settings: B: bound to Aβ1-42 fibrils in PBS buffer, [probe] = 5 μM, [fibrils] = 20 μM
λem1 (emission wavelength of decay): recorded values
Write it as a number; the unit nm goes unstated.

>>> reading("Oc1ccc(/C=C/c2ccccc2)cc1O [Compound 2, (E)-4-Styrylbenzene-1,2-diol]")
410
>>> reading("Oc1ccc(/C=C/c2cc3ccc4cccc5ccc(c2)c3c45)cc1O")
430
>>> reading("Oc1ccc(/C=C/c2ccc3cc4ccccc4cc3c2)cc1O")
460

Query: # query: λem1 (emission wavelength of decay) of entry Oc1ccc(/C=C/c2ccc3ccccc3c2)cc1O
Reply: 420

* * *

Molecular target: Aβ1-42 fibrils (Homo sapiens)
Assay: Fluorescence lifetime
Settings: B: bound to Aβ1-42 fibrils in PBS buffer
outcome_measure: τ2 (ns)
Write down the numeric answer in ns and omit the unit.

Below, 3 molecules whose answers are already recorded.
>>> reading("Oc1ccc(/C=C/c2ccccc2)cc1O [Compound 2, (E)-4-Styrylbenzene-1,2-diol]")
2.31
>>> reading("Oc1ccc(/C=C/c2cc3ccc4cccc5ccc(c2)c3c45)cc1O")
8.89
>>> reading("Oc1ccc(/C=C/c2ccc3cc4ccccc4cc3c2)cc1O")
6.06

Please turn your attention to the following entry.
Query: τ2 for Oc1ccc(/C=C/c2ccc3ccccc3c2)cc1O ?
Reply: 1.65
